Experiment: Pharmacokinetic evaluation in Balb/c mice
Format: in vivo
Details: male, mouse, plasma, 1mg/kg, PO
Procedure: Experimental objective: To understand the pharmacokinetic profiles of the compounds. Experimental basis: Technical guidelines for non-clinical pharmacokinetic studies of chemical drugs, 2014. Experimental scheme: The pharmacokinetic profiles of the compounds were investigated by intravenous administration (1 mg·kg^-1) and intragastric administration (1 mg·kg^-1) in Balb/c mice. […]
Reported half-life is given for each of the following molecules.
METRIC: half-life (h)

molecule="CCc1nc2c([nH]c1=O)C[C@@H](CN1CC=C(c3ccc(C(=O)NC)nc3F)CC1)CC2 [Example 53]" value_reported=7.1
molecule="CCc1cc2c([nH]c1=O)CC(CN1CCN(c3ccc(C(=O)NC)nc3F)CC1)OC2 (centres unmarked) [Compound 2]" value_reported=1.36
molecule="CNC(=O)c1ccc(N2CCN(CC3Cc4[nH]c(=O)c(C)cc4CO3)CC2)c(Cl)n1 (centres unmarked) [Example 74]" value_reported=2.52
molecule="CNC(=O)c1ccc(N2CCN(C[C@H]3CCc4nc(C)c(=O)[nH]c4C3)CC2)c(F)n1 [Example 45]" value_reported=7.98
molecule="CNC(=O)c1ccc(C2=CCN(CC3Cc4[nH]c(=O)c(C5CC5)cc4CO3)CC2)c(F)n1 (centres unmarked) [Example 51]" value_reported=15.9
